Cited source for all entries: patent US10668043B2

# Test system: Pasteurella
# assay.method.text: etest on agar containing the booster
# Type: cell-based
# measurement.context: strain 14012; 10 mg cineol TE
value.kind: MIC (e-test) (µg/mL)
Numbers only, in µg/mL.

The following compounds have reported results that may help.
O=C(O)c1cn(C2CC2)c2cc(N3CCNCC3)c(F)cc2c1=O; 0.006
C[C@@H](O)[C@H]1C(=O)N2C(C(=O)O)=C(S[C@@H]3CN[C@H](C(=O)N(C)C)C3)[C@H](C)[C@H]12; 0.008
CO[C@@]1(NC(=O)Cc2cccs2)C(=O)N2C(C(=O)O)=C(COC(N)=O)CS[C@@H]21; 0.5

Now, please, on to the next compound.
What the record says about "CC1(C)S[C@@H]2[C@H](NC(=O)[C@H](N)c3ccc(O)cc3)C(=O)N2[C@H]1C(=O)O" : MIC (e-test) is 0.094
